measurement-target: ecNOS (Homo sapiens, UniProt P29474)
assay-procedure: NOS activity assay, ecNOS (L-[3H]citrulline formation)
Type: biochemical
pIC50: −log10 of the molar value. Counter-ions that a name gives are not always drawn.
property-name: pIC50

Use the examples below as a reference point.
1) CC1CN=C(N)C1 (stereo not shown) [Table 4: H, CH3, H, H, H, hydrochloride]    ≥ 5.00
2) N=C1CN[C@@H]2CCCC[C@@H]2N1 (relative stereo) [Table 5: N, H, H, cis-(CH2)4, H, H, 2-Imino-decahydro-cis-quinoxaline]    < 4.30
3) C[C@@H]1CC(=N)N[C@H](C)C1 (relative stereo) [Table 5: CH, H, CH3, H, CH3, H, H, acetic acid salt]    ≥ 6.00

Reported pIC50 for N=C1CCCCN1 [Table 5: CH2, H, H, H, H, H, H, 2-Iminopiperidine hydrochloride] : what is it? ≥ 6.00

Reported pIC50 for CC1CCCN=C1N (stereo not shown) [Table 5: CH2, CH3, H, H, H, H, H, 2-Imino-3-methylpiperidine hydrochloride] : what is it? ≥ 5.00

Reported pIC50 for NC1=NCCC1 [Table 4: H, H, H, H, H, 1-Aza-2-imino-cyclopentane hydrochloride] : what is it? ≥ 5.00

Reported pIC50 for C[C@@H]1CCC(=N)NC1 [Table 5: CH2, H, H, (R)CH3, H, H, H, hydrochloride] : what is it? ≥ 5.00

* * *

measurement-target: UniProt P29475
assay-procedure: biochemical
assay-conditions: Table 5; read-out: IC50 ncNOS
Counter-ions that a name gives are not always drawn.
Measured IC50 of individual entries

1) CO[C@@H]1CNC(=N)C[C@@H]1C [Table 5: CH, H, (S)CH3, (S)OCH3, H, H, H, hydrochloride]    ≤ 1 µM
2) CC(=O)NC1CNC(=N)CC1C (mixture of isomers) [Table 5: CH, H, CH3, NHAc, H, H, H, acetic acid salt]    > 50 µM
3) CC1(C)CCC(=N)NC1 [Table 5: CH2, H, H, (CH3)2, H, H, H, hydrochloride]    ≤ 10 µM
4) N=C1CSCCN1 [Table 5: S, H, --, H, H, H, H, 3-Iminothiomorpholine hydrochloride]    ≤ 1 µM
5) NC1=NCCc2ccccc21    ≤ 10 µM

Reported IC50 for CC1CCCN=C1N (stereo not drawn) [Table 5: CH2, CH3, H, H, H, H, H, 2-Imino-3-methylpiperidine hydrochloride] : what is it? ≤ 1 µM

Reported IC50 for NC1=Nc2ccccc2CC1 [Table 5: CH2, H, H, (CH)4, H, H, hydrochloride] : what is it? ≤ 10 µM

* * *

Measured IC50 of individual entries
measurement-target: ecNOS (Homo sapiens)
assay-procedure: NOS activity assay, ecNOS (L-[3H]citrulline formation)
Assay type: biochemical
assay-conditions: Table 4; read-out: IC50 ecNOS
Method: Assay Protocol for NOS activity NOS activity is measured as the formation of L-[2,3,4,5-^3 H]Citrullinefrom L-[2,3,4,5-^3 H]Arginine. […] Reaction products are separated by passing through a cation exchange resin and quantitated as cpm by scintillation counting.
Where a name gives a salt, the structure may show the parent alone.

Use the examples below as a reference point.
1. CC1CC(N)=NC1C (centres unmarked) [Table 4: H, CH3, CH3, H, H, hydrochloride]    < 1 µM
2. CC(C)C1CN=C(N)C1 (centres unmarked) [Table 4: H, i-C3H7, H, H, H, hydrochloride]    > 50 µM
3. N=C1CC[C@@H](CO)N1 [Table 4: H, H, (S)-CH2OH, H, H, hydrochloride]    > 50 µM

Reported IC50 for N=C1CC[C@H](CO)N1 [Table 4: H, H, (R)-CH2OH, H, H, hydrochloride] : what is it? ≤ 50 µM

Reported IC50 for CC(=O)OC[C@@H]1CCC(=N)N1 [Table 4: H, H, (S)-CH2OAc, H, H, hydrochloride] : what is it? > 50 µM

Reported IC50 for CCC1CN=C(N)C1 (centres unmarked) [Table 4: H, C2H5, H, H, H, 2-Imino-4-ethylpyrrolidine hydrochloride] : what is it? ≤ 50 µM

Reported IC50 for CC1CN=C(N)C1C (centres unmarked) [Table 4: CH3, CH3, H, H, H, hydrochloride] : what is it? ≤ 10 µM

Reported IC50 for CCC1CC(N)=NC1C (centres unmarked) [Table 4: H, C2H5, CH3, H, H, hydrochloride] : what is it? ≤ 10 µM

* * *

Measured pIC50 of individual entries
measurement-target: iNOS (Homo sapiens)
assay-procedure: NOS activity assay, iNOS (L-[3H]citrulline formation)
Type: biochemical
pIC50: −log10 of the molar value. Structures can show the parent of a compound that is named as a salt.

1. C[C@H]1CCNC(=N)C1 [Table 5: CH, H, (S)CH3, H, H, H, H, hydrochloride]    ≥ 6.00
2. CC1CCN=C(N)C1 (centres unmarked) [Table 5: CH, H, CH3, H, H, H, H, 2-Imino-4-methylpiperidine hydrochloride]    ≥ 6.00
3. N=C1CN[C@@H]2CCCC[C@@H]2N1 (relative stereo) [Table 5: N, H, H, cis-(CH2)4, H, H, 2-Imino-decahydro-cis-quinoxaline]    ≥ 5.00
4. C[C@H]1CCC(=N)NC1 [Table 5: CH2, H, H, (S)CH3, H, H, H, hydrochloride]    ≥ 5.00

Reported pIC50 for CC1CN=C(N)C1 (centres unmarked) [Table 4: H, CH3, H, H, H, hydrochloride] : what is it? ≥ 5.00

* * *

measurement-target: UniProt:P35228
assay-procedure: NOS activity assay, iNOS (L-[3H]citrulline formation)
Format: biochemical
Counter-ions that a name gives are not always drawn.
Measured IC50 of individual entries

Use the examples below as a reference point.
1) C[C@@H]1CCNC(=N)C1 [Table 5: CH, H, (R)CH3, H, H, H, H, hydrochloride]    ≤ 1000 nM
2) C[C@@H]1CC(=N)N[C@H](C)C1 (relative stereo) [Table 5: CH, H, CH3, H, CH3, H, H, acetic acid salt]    ≤ 1000 nM
3) N=C1CCCCN1 [Table 5: CH2, H, H, H, H, H, H, 2-Iminopiperidine hydrochloride]    ≤ 1000 nM
4) N=C1CNC2CCCCC2N1 (centres unmarked)    ≤ 10000 nM
5) CC1CCC(N)=NC1 (centres unmarked) [Table 5: CH2, H, H, CH3, H, H, H, 2-Imino-5-methylpiperidine hydrochloride]    ≤ 1000 nM
6) CC1CCC(N)=N1 (centres unmarked) [Table 4: H, H, CH3, H, H, hydrochloride]    ≤ 10000 nM
7) CC1CCCN=C1N (centres unmarked) [Table 5: CH2, CH3, H, H, H, H, H, 2-Imino-3-methylpiperidine hydrochloride]    ≤ 10000 nM

In the following, a different compound is considered.
Query IC50 on UniProt:P35228 for C[C@@H]1CCC(=N)NC1 [Table 5: CH2, H, H, (R)CH3, H, H, H, hydrochloride] ≤ 1000 nM

* * *

measurement-target: ncNOS (Homo sapiens, UniProt P29475)
Sequence (P29475 whole entry): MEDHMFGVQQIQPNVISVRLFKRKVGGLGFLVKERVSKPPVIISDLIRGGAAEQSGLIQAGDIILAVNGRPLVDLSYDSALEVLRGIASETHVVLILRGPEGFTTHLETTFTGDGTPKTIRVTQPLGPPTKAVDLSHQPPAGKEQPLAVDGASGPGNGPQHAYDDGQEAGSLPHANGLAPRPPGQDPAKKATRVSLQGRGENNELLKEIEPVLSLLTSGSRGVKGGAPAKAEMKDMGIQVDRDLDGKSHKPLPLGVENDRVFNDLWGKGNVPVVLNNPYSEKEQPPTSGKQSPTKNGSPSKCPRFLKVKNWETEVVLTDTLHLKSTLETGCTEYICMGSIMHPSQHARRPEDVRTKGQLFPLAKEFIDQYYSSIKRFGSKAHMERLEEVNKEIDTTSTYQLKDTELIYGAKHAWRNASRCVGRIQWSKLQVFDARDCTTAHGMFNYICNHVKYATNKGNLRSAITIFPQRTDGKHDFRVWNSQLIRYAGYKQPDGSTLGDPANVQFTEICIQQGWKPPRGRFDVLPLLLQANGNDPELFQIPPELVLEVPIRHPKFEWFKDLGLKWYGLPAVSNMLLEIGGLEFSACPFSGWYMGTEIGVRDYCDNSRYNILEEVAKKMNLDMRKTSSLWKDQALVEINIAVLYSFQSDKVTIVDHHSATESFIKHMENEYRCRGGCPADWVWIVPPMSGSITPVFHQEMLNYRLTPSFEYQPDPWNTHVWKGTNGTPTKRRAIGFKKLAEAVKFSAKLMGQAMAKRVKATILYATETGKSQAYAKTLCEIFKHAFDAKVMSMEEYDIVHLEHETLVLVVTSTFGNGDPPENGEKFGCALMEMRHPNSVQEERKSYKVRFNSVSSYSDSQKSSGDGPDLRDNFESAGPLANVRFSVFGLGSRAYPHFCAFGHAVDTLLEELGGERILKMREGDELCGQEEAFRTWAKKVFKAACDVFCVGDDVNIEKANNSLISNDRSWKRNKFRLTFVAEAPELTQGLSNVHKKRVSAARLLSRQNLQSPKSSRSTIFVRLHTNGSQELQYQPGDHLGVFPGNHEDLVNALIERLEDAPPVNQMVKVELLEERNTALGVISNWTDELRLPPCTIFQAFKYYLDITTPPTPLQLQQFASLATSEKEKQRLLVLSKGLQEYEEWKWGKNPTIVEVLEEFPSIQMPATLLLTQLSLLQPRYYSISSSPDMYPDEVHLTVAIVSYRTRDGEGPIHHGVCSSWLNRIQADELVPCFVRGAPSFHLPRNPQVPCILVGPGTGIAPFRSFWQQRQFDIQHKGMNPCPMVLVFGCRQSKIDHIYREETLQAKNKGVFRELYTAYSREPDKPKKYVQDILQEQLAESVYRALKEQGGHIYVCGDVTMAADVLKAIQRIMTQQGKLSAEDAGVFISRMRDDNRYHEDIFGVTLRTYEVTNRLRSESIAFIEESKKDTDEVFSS
assay-procedure: biochemical
assay-conditions: Table 4; read-out: IC50 ncNOS
pIC50: −log10 of the molar value. Counter-ions that a name gives are not always drawn.
property-name: pIC50

Use the examples below as a reference point.
1. CC1(C)CCC(=N)N1 [Table 4: H, H, (CH3)2, H, H, hydrochloride]    ≥ 5.00
2. CC1CC(N)=NC1C (single isomer, unassigned) [Table 4: H, CH3, CH3(A), H, H]    ≥ 6.00
3. N=C1CC[C@@H](CO)N1 [Table 4: H, H, (S)-CH2OH, H, H, hydrochloride]    ≥ 4.30

In the following, a different molecule is considered.
Reported pIC50 for CC(=O)OC[C@@H]1CCC(=N)N1 [Table 4: H, H, (S)-CH2OAc, H, H, hydrochloride] : what is it? ≥ 5.00

* * *

Measured % inhibition of individual entries
Tested on: NO synthase
assay-procedure: Assay Protocol for NOS activity: % inhibition at 50 uM (formation of L-[3H]citrulline from L-[3H]arginine)
Assay type: biochemical
assay-conditions: Table 2
A number alone suffices; assume %.

Use the examples below as a reference point.
1. c1ccc(CNC2=NCCCCC2)cc1 [Table 2: CH2 -phenyl]    3
2. CNC1=NCCCCC1 [Table 2: CH3]    3
3. CCNC1=NCCCCC1 [Table 2: CH2 CH3]    55

In the following, a different compound is considered.
Reported % inhibition for C1CCN=C(NC2CCCCC2)CC1 [Table 2: cyclohexyl] : what is it? 8

* * *

measurement-target: iNOS (Homo sapiens, UniProt P35228)
assay-procedure: NOS activity assay, iNOS (L-[3H]citrulline formation)
Format: biochemical
assay-conditions: Table 4; read-out: IC50 iNOS
Structures can show the parent of a compound that is named as a salt.
Measured IC50 of individual entries

Use the examples below as a reference point.
1) CC1CC(N)=NC1C (single isomer, unassigned) [Table 4: H, CH3, CH3(B), H, H]    ≤ 1 µM
2) N=C1CC[C@H](CO)N1 [Table 4: H, H, (R)-CH2OH, H, H, hydrochloride]    ≤ 50 µM
3) CC1CC(N)=NC1C (single isomer, unassigned) [Table 4: H, CH3, CH3(A), H, H]    ≤ 1 µM
4) O=C(O)C1CCC(=NC2NCCS2)N1 (centres unmarked) [Table 4: H, H, CO2H, H, 2-thiazolidinyl]    ≤ 50 µM
5) CC1CCN=C1N (centres unmarked) [Table 4: CH3, H, H, H, H, hydrochloride]    ≤ 10 µM

Reported IC50 for CCC1CC(N)=NC1C (centres unmarked) [Table 4: H, C2H5, CH3, H, H, hydrochloride] : what is it? ≤ 1 µM

Reported IC50 for N=C1CC[C@@H](CO)N1 [Table 4: H, H, (S)-CH2OH, H, H, hydrochloride] : what is it? ≤ 10 µM

Reported IC50 for CCCC1CC(N)=NC1CC (centres unmarked) [Table 4: H, n-C3H7, C2H5, H, H, hydrochloride] : what is it? ≤ 50 µM

All values here come from patent US5629322A.
